- PROTOCOL DETAILS: soluble on expression in E. coli; label from the status in PepcDB or PDB records

ITEM SEQUENCE	soluble on expression in E. coli
KKRIQTEHCSYNRRRDYPLFKFIEYVLYWGHHYTVSISEKVQEELVKFMPRYQHKYRVVHNGVDLNRFPMTAKQAHDISEKATINIGMVGRLHEHKDHETLIHAIAKLPECYHLHLAGDGDRKASLQRLAQSLNVSPRVHFHGVVSDIPRFLSDMDIYVQSSHVE	not soluble
MGSDKIHHHHHHKSVHPYWSQVEQGVKAAGKALGVDTKFFVPQKEDINAQLQMLESFIAEGVNGIAIAPSDPTAVIPTIKKALEMGIPVVTLDTDSPDSGRYVYIGTDNYQAGYTAGLIMKELLGGKGKVVIGTGSLTAMNSLQRIQGFKDAIKDSEIEIVDILNDEEDGARAVSLAEAALNAHPDLDAFFGVYAYNGPAQALVVKNAGKVGKVKIVCFDTTPDILQYVKEGVIQATMGQRPYMMGYLSVTVLYLMNKIGVQNTLMMLPKVKVDGKVDYVIDTGVDVVTPENLDEYLKKMEELGIPIKF	not soluble

* * *

- PROTOCOL DETAILS: soluble on expression in E. coli; label from the status in PepcDB or PDB records
MEASUREMENT TYPE: soluble on expression in E. coli

ITEM SEQUENCE	RESULT
MGSDKIHHHHHHGNDDFPAEEPKVPLEITSAFVTGDVQTRAVTPELLTSGSIGVFLEGRSGTGYDKKDNIQYDYNVGWKPKTETIYLGGEDADVCAYKKTTKLDLSAKEAVPLVSQIYDAEIDLVYATNQTVNGTSAGKSVEFTMGHAYSQIEFVFSREDYPNTCKVTEITVENANIIKTATLNLATGGYTPVTVEKVSYWTNVAKHEDGIAVPESGTVKSNVLMIPCTLANAGGTGVTLELKVDGKLMTVPIAHDKLGALTAGVIHQISLKLKGTALEISVKDTPWDNQPVDGEYNPEP	not soluble
MGSDKIHHHHHHMIACENSGHSIPDDFPEVRKIVEAGVTTNPKKDYELSRYACYLIVQNGDPRKEVIALGQTYFAIQTYRQEVADHFNELDEDNRRLVVRGDIKQWNQMLAETAHNAGVITNEEFAIFQNAGYMGLYGGLDVEGILAAVYQSVFGGDVYLSLEEKVANLLFNEIGNSQVV	not soluble

* * *

- PROTOCOL DETAILS: soluble on expression in E. coli; label from the status in PepcDB or PDB records

ITEM SEQUENCE	soluble on expression in E. coli
MKSIGTQILQTERLILRRFVESDAEAMFQNWASSAENLTYVTWDPHPDVEITRNSICNWVASYTNLNYYKWAICLKENPEQVIGDISIVKIDEADLSCEIGYVLGKAYWGNGMMTETLKAILDFCFTQAGFQKVRARYASLNPASGRVMEKAGMSYLQTIVNGVERKGYLADLIYYGISREEC	not soluble
MPITNASPENILRYLHAAGTGTKEAMKSATSPRGILEWFVNFFTCGGVRRSNERWFREVIGKLTTSLLYVNKNAFFDGNKIFLEDVNGCTICLSCGAASENTDPMVIIEVNKNGKTVTDKVDSERFWNVCRMLKLMSKHNIQQPDSLITEDGFLNLRGVNLAHKDFQGEDLSKIDASNADFRETTLSNVNLVGANLCCANLHAVNLMGSNMTKANLTHADLTCANMSGVNLTAAILFGSDLTDTKLNGAKLDKIALTLAKALTGADLTGSQHTPTPLPDYNDRTLFPHPIF	not soluble

* * *

- PROTOCOL DETAILS: soluble on expression in E. coli; label from the status in PepcDB or PDB records

ITEM SEQUENCE	soluble on expression in E. coli
MGSDKIHHHHHHMSTLPHLGFQVYQPCAPLLPYVRCYWQITRIAAPETRSTEFMHPEGGTGIIFNFGAPMHFDGWQHRAQCLVTGPTKQSTRLELSGRVDALGIRFWPGAGRAFLKTPLSEMLGQTLTPADLSLALLSDELAERLAVLPTAPERIALLETRLLHYLTAHGSQTQTTEPSMKYALNWIAEQKGQGEIRNLLTEIDISQRQLERLFQQNLGMSPKNYSILQRTGFARELLKSDTDSPLTDIGYQAGFYDQAHFIREFKQVIGITPGQFRSKALLRR	not soluble
MGSDKIHHHHHHVRCLNEEIARKANREDECKGAFWEGRFKSQALLDEQALLACMMYVDLNPIRAGIADSLQSSDFTSIQERISALKQVNNTIISPQAPVQSAKNKPQTINKSLAKFDAATHSSQQTGIPFHFADYLELIDWTGRTIRHDKKGFIDNQRPKLLNELGIASDAWLSSAKDFRRQYSGISGRWDAMCAFKLQQGGKWCRGKSSCEALHPNQPLG	not soluble

* * *

- PROTOCOL DETAILS: soluble on expression in E. coli; label from the status in PepcDB or PDB records

ITEM SEQUENCE	soluble on expression in E. coli
GHELSAIIPRSSWLAQKPMDEPLPLQLPVKYVVILHTATESSEKRAINVRLIRDMQSFHIESRGWNDIAYNFLVGCDGNIYEGRGWKTVGAHTLGYNRISLGISFIGCFMKELPTADALNMCRNLLARGVEDGHISTDYRLICHCQCNSTESPGRRLYEEIQTWPHFYNIEEEEQ	soluble
GAMGKVGVGKKAEAVATVVAAVDQARVREPREPGLPEDSYAQQTTLEYGYKEH	soluble
GSLTTISSILSLKREKPDNLAIILQIDFTKLKEEDSLIVVYNSLKALTIKFARLQFCFVDRNNYVLDYGSVLHKIDSLDSISNLKSKSSSTQFSPIWLKNTLYPENIHEHLGIVAVSNSNMEAKKSILFQDYRCFTSFGRRRPNELKIKVGYLNVDYSDKIDELVEASSWTFVLETLCYSFGLSFDEHDDDDEEDN	soluble

* * *

- PROTOCOL DETAILS: soluble on expression in E. coli; label from the status in PepcDB or PDB records
MEASUREMENT TYPE: soluble on expression in E. coli

See these solved cases before continuing.
ITEM SEQUENCE	RESULT
MVNKEHFSKKFDADLEEIRTRVLQMGGLVEEQIKNAIEALTEGNEHMIEQVIDNDHRVNAMEVKIDELCSQIIVRRQPTAIDLRMIMTVINTITDLERIGDEAAKIARMAKLIYAADRMYTPRFVEIRHIAAIAMDMLRKALDAFARVDPNASAEIVRQDEQVDEEFRSIIRHLVTFMMEDPRKISTAIEILFAAKAVERIGDHAKNMSEYVVYMVKGKDVRHVSADEIEREVGK	not soluble
MGSDKIHHHHHHKDDADAPLRFYDSKYEVPMGGRRYLGIESGNGDYSLEIGNPRIASAGIESGWSGVPAGRMIYISGILTGSTYLKVTDNATQETLTLPIKVVDYYEDLNLIHGSSSLRPNGDENLLPGVDDIFLVSNAARDAYFFKQGQRTAFSSGLELITKGTYALKQEDENKATLTLTFSLDASPATEHHFTVWGNTYLLHRLDKNLHLNWGTPPIGETRTSPAPPPAYTLEEITEGAEPGTGRQVGFILNYKEIPTGILP	not soluble
MASLSQTPPDLPLCRGDRVRMSPLGRERHPRYGTREGVIVGQGSPSSWRVKFDDRKTIQAIHQDYLERVPAQAARFDSSEIWNGWRNDPPATA	not soluble
MAHHHHHHMSENLDRYDAYRLFCISAAAVNGDEDELQDRLGIVEEYLTEYEGLCRAFHKAQRTTHAQEIRRLLADEAEERRFLKEDADSLPWKLFINMSFACAQELVVEHERKMRQGIVAAYTASFTELLFPYETLQRMRLTWEALDSLALKACIVGRYGVREGQLARTSIPGYTAGSTFPPSARAAAAADAVRSLLAEEHQERQEMIEARGQHVAAALLILASSEKFRSFASASVCGMGFLPQLRNNLASTARQALDNSATRIQSAYRGYRVRAVRARS	not soluble
MADLSSRVNELHDLLNQYSYEYYVEDNPSVPDSEYDKLLHELIKIEEEHPEYKTVDSPTVRVGGEAQASFNKVNHDTPMLSLGNAFNEDDLRKFDQRIREQIGNVEYMCELKIDGLAVSLKYVDGYFVQGLTRGDGTTGEDITENLKTIHAIPLKMKEPLNVEVRGEAYMPRRSFLRLNEEKEKNDEQLFANPRNAAAGSLRQLDSKLTAKRKLSVFIYSVNDFTDFNARSQSEALDELDKLGFTTNKNRARVNNIDGVLEYIEKWTSQRESLPYDIDGIVIKVNDLDQQDEMGFTQKSPRWAIAYKFPAEEHHHHHH	soluble

// input: 2 sequences below; output: soluble on expression in E. coli for each
1. MIGPISQINISGGLSEKETSSLISNEELKNIITQLETDISDGSWFHKNYSRMDVEVMPALVIQANNKYPEMNLNLVTSPLDLSIEIKNVIENGVRSSRFIINMGEGGIHFSVIDYKHINGKTSLILFEPANFNSMGPAMLAIRTKTAIERYQLPDCHFSMVEMDIQRSSSECGIFSFALAKKLYIERDSLLKIHEDNIKGILSDGKNPLPHDKLDPYLPVTFYKHTQGKKRLNEYLNTNPQGVGTVVNKKNETIVNRFDNNKSIVDGKELSVSVHKKRIAEYKTLLKV
2. GRWILKNDVKNRSVYIKGFPTDATLDDIKEWLEDKGQVLNIQMRRTLHKAFKGSIFVVFDSIESAKKFVETPGQKYKETDLLILFKDDYFAKKNEERKQNKVE

Data returned:
1. not soluble
2. soluble
